Where do the numbers come from? From patent US20190241669A1.

target: T1, cynomolgus monkey BCMA (cynomolgus monkey, UniProt A0A2K5UD97 1-53); assay: SPR, IgG on chip, cyBCMA analyte
T1 construct: Soluble analyte in SPR; construct not described; also called cyBCMA; Cyno BCMA
T1 sequence (A0A2K5UD97 entry or part of it): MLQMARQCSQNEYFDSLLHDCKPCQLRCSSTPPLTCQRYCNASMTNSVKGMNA

binder	scale.unit	Kd
C01_Rd4_0.6nM_C03 (antibody, V domains shown, IgG) VH: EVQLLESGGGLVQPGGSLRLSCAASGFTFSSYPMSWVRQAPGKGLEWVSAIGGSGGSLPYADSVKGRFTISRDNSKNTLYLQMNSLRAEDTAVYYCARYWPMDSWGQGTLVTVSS VL: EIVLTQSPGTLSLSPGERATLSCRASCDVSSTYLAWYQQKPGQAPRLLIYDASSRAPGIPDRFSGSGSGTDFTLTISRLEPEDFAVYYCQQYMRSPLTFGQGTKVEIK	nM	2.53
A02_Rd4_0.6nM_C10 (antibody, V domains shown, IgG) VH: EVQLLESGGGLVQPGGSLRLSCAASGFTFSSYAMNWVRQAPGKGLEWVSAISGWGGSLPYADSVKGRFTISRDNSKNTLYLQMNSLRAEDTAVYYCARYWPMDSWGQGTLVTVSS VL: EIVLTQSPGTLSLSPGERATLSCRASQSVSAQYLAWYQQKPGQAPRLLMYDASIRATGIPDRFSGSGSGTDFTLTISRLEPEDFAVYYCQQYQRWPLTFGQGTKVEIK	nM	1.84
COMBO_Rd4_0.6nM_C30 (antibody, V domains shown, IgG) VH: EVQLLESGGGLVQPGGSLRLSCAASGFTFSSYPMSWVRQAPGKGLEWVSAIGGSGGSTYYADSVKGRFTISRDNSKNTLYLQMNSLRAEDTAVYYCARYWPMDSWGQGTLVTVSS VL: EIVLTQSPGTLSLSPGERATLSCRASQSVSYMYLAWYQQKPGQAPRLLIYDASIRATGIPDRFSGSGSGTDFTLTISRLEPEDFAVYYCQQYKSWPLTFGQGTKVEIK	nM	0.481
